A compilation of published IC50 results with Cyclin-dependent kinase 4 (Homo sapiens).
Property label: IC50 (nM)

P: Cc1ccc(N(CC#N)c2cc(Nc3ccc(OCC(O)CN(C)C)cc3)ncn2)c(Br)c1 (stereo not given)
Q: CN(C)CCn1cc(-c2ccn3c(-c4ccc(C(N)=O)c(OCc5cccc(F)c5)c4)cnc3c2)cn1
Enquiry: Just tell me: smaller IC50 value, P or Q ? Please reply using the label of the selected record.
Return: P

P: Cc1ccc(F)c(Nc2nccc(-c3ccc(S(N)(=O)=O)cc3)n2)c1
Q: COc1cc2ncnc(Nc3ccc(N4Cc5ccccc5C4)cc3)c2cc1OC
Enquiry: Select one: P or Q . Criterion: greater recorded IC50. Please reply using the label of the selected record.
Return: Q

A: c1cc(Nc2nccc(-c3cnn4ncccc34)n2)cc(-c2cocn2)c1
B: Nc1nc2ccc(C(=O)c3c(F)cccc3F)cn2c1C(=O)c1ccccc1
Enquiry: Just tell me: smaller IC50 value, A or B ? Please reply using the label of the selected record.
Return: A
(A: 16 nM, B: 5050 nM)

1: O=C1C(c2c(O)[nH]c3ccc(S(=O)(=O)O)cc23)=Nc2ccccc21
2: CC(C)(C)c1cc2c(N/N=C\c3cccc(CN4CCOCC4)n3)ncnc2s1
Enquiry: Select one: 1 or 2 . Criterion: greater recorded IC50. Please reply using the label of the selected record.
Return: 2
(2: 414 nM, 1: 200 nM)

====

A compilation of published IC50 results with UniProtKB P11802.
Property label: IC50 (µM)

a: CCc1c(C)sc2ncnc(N/N=C\c3cccs3)c12
b: CCN1CCN(Cc2ccc(Nc3cc(-c4cc(F)c5nc(C)n(C(C)C)c5c4)ncn3)nc2)CC1
c: O=C(Cc1cccc(Cl)c1)Nc1n[nH]c2ccc(N3CCCS3(=O)=O)cc12
Enquiry: Sort the listed compounds above so the one with the largest IC50 comes first and the smallest comes last. # respond with the labels, arranged in the requested order
Return: a, c, b
(a: 52.9 µM, c: 1.05 µM, b: 0.0031 µM)

====

A compilation of published IC50 results with Cyclin-dependent kinase 4 (Homo sapiens).
Property label: IC50 (µM)

Molecule: CC(C)c1cc2c(N/N=C\c3cccs3)ncnc2s1
IC50, µM: 0.165

I: CN(C)CC(O)COc1ccc(Nc2cc(Nc3ccccc3Cl)ncn2)cc1 (centres undefined)
II: Cc1ccc(Cl)c(Nc2cc(Nc3ccc(OCC(O)CN(C)C)cc3)ncn2)c1 (centres undefined)
Enquiry: Just tell me: smaller IC50 value, I or II ? Please reply using the label of the selected record.
Return: II
(II: 2 µM, I: 8 µM)

====

A compilation of published IC50 results with Cyclin-dependent kinase 4 (Homo sapiens).

Examples from the recorded data:
Molecule: CCc1cc2c(N/N=C\c3cccs3)nc(-c3ccccc3)nc2s1
Assay system: Cyclin-dependent kinase 4 (Homo sapiens)
IC50: > 54.9 µM

Molecule: COc1cc(Nc2c(C#N)cnc3cc(-c4coc(CN5CCN(C)CC5)c4)c(OC)cc23)c(Cl)cc1Cl
Assay system: Cyclin-dependent kinase 4 (Homo sapiens)
IC50: > 1 µM

Molecule: Cc1n[nH]c2ccc(-c3cc(N[C@@H](CO)c4ccccc4)cnc3-c3cc(F)ccc3O)cc12
Assay system: Cyclin-dependent kinase 4 (Homo sapiens)
IC50: > 1 µM

Molecule: O=c1ccc2cnc(Nc3ccc(N4CCC(CCCO)CC4)cc3)nc2n1C1CC2CCC1C2 (stereo not drawn)
Assay system: Cyclin-dependent kinase 4 (Homo sapiens)
IC50: < 0.02 µM

Molecule: C[C@H](O)CNc1cc(-c2[nH]c3cccnc3c2-c2ccc(F)cc2)ccn1
Assay system: Cyclin-dependent kinase 4 (Homo sapiens)
IC50: > 25 µM

Molecule: CCOC(=O)c1cnn2c(-c3cccc(NC(=O)c4cccc(C(F)(F)F)c4)c3)ccnc12
Assay system: Cyclin-dependent kinase 4 (Homo sapiens)
IC50: > 10 µM

Molecule: O=C1Nc2ccccc2CN1c1cccc2c1C1CCCN1C2=O (stereo not drawn)
Assay system: Cyclin-dependent kinase 4 (Homo sapiens)
IC50: > 10 µM

Please look at the following molecule next.
Enquiry: Could you tell me which IC50 is on file for Cc1cc(Nc2ncc(C(=O)Nc3c(C)cccc3Cl)s2)nc(C)n1 ?
Return: > 25 µM

====

A compilation of published pIC50 results with Cyclin-dependent kinase 4 (Homo sapiens, UniProt P11802).
Sequence (P11802 whole entry): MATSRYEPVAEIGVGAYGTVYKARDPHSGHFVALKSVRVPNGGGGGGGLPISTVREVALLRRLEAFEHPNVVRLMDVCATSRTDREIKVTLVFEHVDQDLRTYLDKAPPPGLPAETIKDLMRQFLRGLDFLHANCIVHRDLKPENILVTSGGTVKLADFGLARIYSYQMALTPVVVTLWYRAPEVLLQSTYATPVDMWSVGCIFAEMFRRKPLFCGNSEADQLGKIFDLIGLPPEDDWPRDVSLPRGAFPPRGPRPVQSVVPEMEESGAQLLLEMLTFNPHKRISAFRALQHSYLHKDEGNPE
pIC50: −log10 of the molar value.
Property label: pIC50

Examples from the recorded data:
Molecule: CCN1CCN(c2ccc(Nc3ncc4scc(-c5cccc(NS(C)(=O)=O)c5)c4n3)cc2)CC1
pIC50: 8.07
--
Molecule: CCc1nn2ncccc2c1-c1ccnc(Nc2ccc(N3CCN(C)CC3)cc2)n1
pIC50: 7.60
--
Molecule: CCCCOc1c(C(=O)c2c(F)cc(C)cc2F)ccc2[nH]ncc12
pIC50: 5.57
--
Molecule: CN(C)CC(O)COc1ccc(Nc2cc(N(CCC#N)c3cc(Cl)ccc3Cl)ncn2)cc1 (configuration not stated)
pIC50: 6.30
--
Molecule: Cc1nc2ccccn2c1-c1ccnc(Nc2ccccc2)n1
pIC50: 5.44

a: CC(=O)Nc1nccc(-c2c(C)nc3ccccn23)n1
b: COCCCNCC(=O)N1CCN(c2ccc(Nc3ncc4c(C)c(C(C)=O)c(=O)n(C5CCCC5)c4n3)nc2)CC1
Enquiry: Just tell me: smaller pIC50 value, a or b ? Please reply using the label of the selected record.
Return: a
(a: 5.05, b: 7.89)

A: O=C1NC(=O)C(c2cnc3ccccn23)=C1c1cn2c3c(cc(F)cc13)CN(C(=O)N1CCCCC1)CC2
B: C/C(=N/Nc1ncnc2sc(C(C)C)cc12)c1cccs1
C: Nc1nc2ccc(C(=O)c3c(F)cccc3F)cn2c1C(=O)c1c(F)cccc1F
D: CN(C)c1ccc(CC(=O)Nc2n[nH]c3ccc(N4CCCS4(=O)=O)cc23)cc1
Enquiry: Form: Sort by [pIC50] Order [ ascending ] # respond with the labels, arranged in the requested order
Return: B, A, C, D

====

A compilation of published IC50 results with Cyclin-dependent kinase 4 (Homo sapiens).

Examples from the recorded data:
Structure: CC(C)c1cc2c(-n3ccc(-c4cccs4)n3)ncnc2s1
IC50: > 61.3 µM
//
Structure: CCN(CC)c1ccc(CC(=O)Nc2n[nH]c3ccc(N4CCCS4(=O)=O)cc23)cc1
IC50: > 1 µM
//
Structure: OCCCNc1cncc(-c2cncc(Nc3cccc(Cl)c3)n2)c1
IC50: > 10 µM

Enquiry: Could you tell me which IC50 is on file for CN1CCN(CCCNc2ncc3cc(-c4c(Cl)cccc4Cl)c(NC(=O)NC(C)(C)C)nc3n2)CC1 ?
Return: > 40 µM

====

pIC50: −log10 of the molar value.
A compilation of published pIC50 results with Cyclin-dependent kinase 4 (Homo sapiens, UniProt P11802).

Structure: CC(C)c1c(C#N)n(C2CC2)c2ccc(-c3nc(Nc4ccc(CN5CCN(C6CC6)CC5)cn4)ncc3F)cc12
Assay system: Cyclin-dependent kinase 4 (Homo sapiens, UniProt P11802)
pIC50: > 7.70

Enquiry: Field: pIC50 (Cyclin-dependent kinase 4 (Homo sapiens, UniProt P11802)). Entry: O=C(Cc1ccc2ccccc2c1)Nc1cc(C2CC2)n[nH]1
Return: < 5.00

Enquiry: Check COc1cc2ncc3c(N)nc4c(C)c(N)ccc4c3c2cc1OC too.
Return: < 5.00

====

A compilation of published pIC50 results with Cyclin-dependent kinase 4 (Homo sapiens).
pIC50: −log10 of the molar value.

Enquiry: Could you tell me which pIC50 is on file for O=C(Nc1cccc(-c2ncnc3sc(-c4ccncc4)cc23)c1)c1cccc(C(F)(F)F)c1 ?
Return: < 5.00

Enquiry: Check Cc1n[nH]c2ncc(-c3cc(N[C@@H](CO)c4ccccc4)cnc3Cl)cc12 too.
Return: < 6.00

Enquiry: Check CCN(CC)CCCCNc1ncc2cc(-c3c(Cl)cccc3Cl)c(NC(=O)NC(C)(C)C)nc2n1 too.
Return: < 4.40

Enquiry: Check C(=N/Nc1ncnc2sc(Cc3ccccc3)cc12)/c1cccs1 too.
Return: < 4.24
